test system: healthy, fed rats; assay: Increase of relative weight of the heart (cardiac hypertrophy); assay type: in vivo, rat (male Sprague-Dawley); details: weight of heart/100 g body weight, oral equimolar doses for 16 days, 24 hours after last administration
test_readout: (B) Relative weight of the heart (%), increase
State the answer as a number, implicitly in %.

In: I would be grateful if you could share the reported (B) Relative weight of the heart (%), increase for CCOC(=O)C1(CCCCCOc2ccc(OC(F)F)cc2)CO1 (stereo not shown) [Substance 3] .
Out: 11

---

test system: healthy, fed rats; assay: Increase in activity of liver enzyme glutamic-pyruvate transaminase (GPT) in blood plasma; type: in vivo, rat (male Sprague-Dawley); details: oral equimolar doses for 16 days, 24 hours after last administration
test_readout: (A) GPT activity (%), increase
State the answer as a number, implicitly in %.

In: I would be grateful if you could share the reported (A) GPT activity (%), increase for CCOC(=O)C1(CCCCCOc2ccc(C(C)=O)cc2)CO1 (stereo not shown) [Substance 4] .
Out: −9

In: Another compound: CCOC(=O)C1(CCCCCOc2ccc(OC(F)F)cc2)CO1 (stereo not shown) [Substance 3]
Out: 12

In: Another compound: CCOC(=O)C1(CCCCCCOc2ccc(Cl)cc2)CO1 (stereo not shown) [Substance 1]
Out: 8

In: Another compound: CCOC(=O)C1(CCCCCCOc2ccc(OC(F)F)cc2)CO1 (stereo not shown) [Substance 2]
Out: 5
